Cited source: PubChem BioAssay AID1347423

Experiment: Resistance to Poly (ADP-Ribose) Polymerase inhibitor: Gene Identification via Genome-wide siRNA Screen
Conditions: mouse BRCA2 R2336H ES cells, olaparib, CellTiter-Glo viability; stronger effect = higher value
In all, about 52,000 sequences went through this assay and about 210 (0.4%) were called active. Only a selection was taken, and actives are over-represented in it overall.
measurement-label: z-score

GCCAUUUACAUUCCCAGGGTT against Gm741 ... 0.238
GCUUCUAAUUGGAGAUUGCTT against Ngfrap1 ... 1.44
GGAUAUUGAACACUUCUUGTT against D330017J20Rik ... 1.25

----------
Assay: Resistance to Poly (ADP-Ribose) Polymerase inhibitor: Gene Identification via Genome-wide siRNA Screen
Settings: mouse BRCA2 R2336H ES cells, olaparib, CellTiter-Glo viability
Among all 52,000 sequences or so, about 210 (0.4%) were called active.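 Rule for the calls: active = gene whose silencing raises cell survival under the drug, median off-target-corrected z-score across its silencing RNAs 2 or more; inactive = the rest.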 This is one part of a sample in which actives are shown more often than they occur.
Outcomes: TRUE = active, FALSE = inactive

GGUCUCAAUCAGAGUUACATT against D430030K24Rik ... TRUE
GGGACCAAGCAGGUAAAAATT against Kif3a ... TRUE
GGAUGCUCUCUUAAAUGGATT against AI595338 ... FALSE
GACUAGAACAACAGAAAGUTT against Vax2 ... FALSE
GGCAUCUUCAAAUGACAUATT against Cic ... TRUE
CGAGGUGACCUACAAGAUUTT against AI481750 ... FALSE
GGAAAUAAGACUCAGGUCATT against Gtf2a1 ... FALSE
GGACUCUUUUCUACGUGGATT against Klhl1 ... TRUE
GGUCCCAGUGUCAUGUCUUTT against Cdipt ... FALSE
GGCAGAAGCAAUGAACUAUTT against Npm1 ... TRUE
CCUUAAUAAACUAUGCUGCTT against 2810439M11Rik ... FALSE
CCAAACUUACAAAUAUGCGTT against Sgpp1 ... TRUE
GGAAAUUUCUUAGCACGAATT against Ppp4r1 ... FALSE
CCCACCUAGGUUCAUCCCATT against Fath ... TRUE
GCUCAGACAUGUUCUUACCTT against BC037527 ... FALSE
CGGUGAAAAACCUAUGUAUTT against 1700028P14Rik ... FALSE

----------
Experiment: Resistance to Poly (ADP-Ribose) Polymerase inhibitor: Gene Identification via Genome-wide siRNA Screen
Conditions: mouse BRCA2 R2336H ES cells, olaparib, CellTiter-Glo viability
Screen size: about 52,000 sequences; about 210 (0.4%) were called active.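 How the source made its calls: active means gene whose silencing raises cell survival under the drug, median off-target-corrected z-score across its silencing RNAs 2 or more; inactive means the rest.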 Shown is part of a subset that was picked to be rich in actives.
Outcomes: active, inactive

GGUUCCAACAAUUGUAAAGTT against Chl1 ... active
GGGCUAAAGUUGAUAAUAATT against Psmc3 ... inactive
CGUACAAGACCAACAGAAGTT against D8Ertd82e ... inactive
CCCUUGAAGAUCACUUAGCTT against Apln ... inactive

----------
Test: Resistance to Poly (ADP-Ribose) Polymerase inhibitor: Gene Identification via Genome-wide siRNA Screen
Settings: mouse BRCA2 R2336H ES cells, olaparib, CellTiter-Glo viability
The campaign covered roughly 52,000 sequences. About 210 (0.4%) were called active.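 The calls were made as follows: active = gene whose silencing raises cell survival under the drug, median off-target-corrected z-score across its silencing RNAs 2 or more; inactive = the rest.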 Only a selection was taken, and actives are over-represented in it overall.
Outcomes: active, inactive

GCUUAUGAUGAACAAGCCCTT against Aplra1 ... inactive
GGGACUUCUUGUGAAUGGATT against Mobp ... inactive
CCGCAUGACACGACAUGUATT against BC034097 ... active
CCUUGGGACUGACUGUAAGTT against A230072I16Rik ... inactive
GCUUGCAUGUACAGACAUUTT against Olfr517 ... inactive
GGAGUUGAAGUUUGUGACATT against Acpp ... active
CCUGAGAACAUUUUAAUCATT against Tas2r116 ... inactive
CCUAGUUGAAAAUUGGGAATT against 0610025O11Rik ... inactive
GGUCAUUGGUCGCUGGUCATT against Gzmm ... inactive
GGACCCUGAAGGAGCUGAATT against Per2 ... inactive
GGUGUCCUUUCAAGUUGAUTT against C530005A01Rik ... inactive
GGAUGUCAGCUGGUGGUUATT against Tmprss6 ... inactive
CCUAUGAAGCUCCAUUAUGTT against Madcam1 ... inactive
GGACAAAGAAGACUCCCGATT against Dpf2 ... inactive
CCCUGUCUCCCGCAUAGAATT against Itgb6 ... active
GGCUAAUGUAUCGUCUGAGTT against Asb16 ... active
GCGACUACUUAGACACUUUTT against 4732481H14Rik ... inactive
GCAGCACCUUUGUGGUUCCTT against Ins2 ... inactive
CCAUUCGGACCAAAGUGUATT against 4930563C04Rik ... inactive
GGUUGUUUAAACUCAGUUUTT against Slco4c1 ... inactive
GCAUUUCUUUCUUGCCUUCTT against Olfr1276 ... inactive
CCCUACCUUGAACGAGUACTT against Apoa1 ... active
GGCAAAAGUGGUUAUUGAATT against Itga6 ... active
GGUUUUUUACACAACAUGCTT against 1110067D22Rik ... inactive
GCCUUUUAGCUGUUCAGGATT against AI451557 ... inactive
GGGACAUACAUAUCCUCCUTT against 1300013D05Rik ... inactive
CCCUAAAACCAAAUGUACATT against E130014J05Rik ... active
CCCUCGAUCCUUUUCACCUTT against Gja4 ... inactive
CCUGAAAAAAUUUAUCGCCTT against Rnf3 ... inactive
GGCCAGCAGACUAUUUAUUTT against 1110021N07Rik ... inactive
GGCUGUCUUGAUUUUGAUUTT against C3ar1 ... inactive
CGAUGAGAUGCGUAUUGAGTT against Card11 ... inactive
GGGAAGUCACUUUUGUUCCTT against Top2a ... inactive
GCCACCUCUUAUGAGGCUUTT against D630045E04Rik ... inactive

----------
Test: Resistance to Poly (ADP-Ribose) Polymerase inhibitor: Gene Identification via Genome-wide siRNA Screen
Conditions: mouse BRCA2 R2336H ES cells, olaparib, CellTiter-Glo viability; stronger effect = higher value
Hit rate of the full screen: of about 52,000 sequences, about 210 (0.4%) were called active. The entries come from a sample that favours actives as a whole.
# z-score per record follows
measurement-label: z-score

GGUACCGGAAAGGAAGUGUTT against Grm1 ... -0.666
GGAGAAGAAGCAGAGAGAATT against C530028I08Rik ... -0.263
CCAUGAUGAUAAUCUGAAUTT against B930090D16Rik ... 0.709
GGAUUUUUCUUUUGAGCGATT against Figf ... -0.866
GGUGAUAGUCCACGAGGUUTT against Mbc2 ... -1.31
GCUACAAUAUGACAAGUGUTT against Adamts5 ... 2.82
CCUUCUGUAGUUGGAAUCATT against 1110038F21Rik ... -0.558
GGAAGCUGGUUCCUGUUUUTT against Bid3 ... 2.66
GGUUGCACUUUUUCAUAGUTT against Bcl2l2 ... 2.83
GGGUUCAAGAGAUGAUAUUTT against Usp11 ... 2.47
CGAAGUUCAUUCCUGUCUATT against Myf6 ... -0.688
GGUUGAACCCACUCUGCAATT against Olfr1113 ... -2.16
CCACCAUCAAAUAUAACUATT against 9930021J03Rik ... 0.126
GGCUAGAGAAAUAGUGUUGTT against D6Ertd253e ... -0.28

----------
Test: Resistance to Poly (ADP-Ribose) Polymerase inhibitor: Gene Identification via Genome-wide siRNA Screen
Conditions: mouse BRCA2 R2336H ES cells, olaparib, CellTiter-Glo viability
Hit rate of the full screen: of about 52,000 sequences, about 210 (0.4%) were called active.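 The calls were made as follows: active = gene whose silencing raises cell survival under the drug, median off-target-corrected z-score across its silencing RNAs 2 or more; inactive = the rest.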 The full list was thinned out, with actives kept by preference.
Outcomes: active, inactive

GAGAAUCCAGAACUCCAAUTT against Olfr952 ... inactive
GGAGAAGAUCGGAUGGCGATT against Itgb5 ... inactive
GCUUGGAAGACUGUAAACUTT against 4921521K07Rik ... inactive
GCGCAAGUACCUCAAGAGUTT against Grem2 ... inactive
GGAGGUUUUGAUGGACUGUTT against 2610528H13Rik ... inactive
GCAAGGUGCACCUAAAGCATT against Egr4 ... inactive
GGGAAAUCAGUUUUACAAATT against Chl1 ... active
GGAACUGAUGAAUAUUUCATT against Chrnb1 ... active
GUAUGAUGCACUCCAGUUGTT against Hdac8 ... inactive
GCUGUUUUAUCUCCAAUGGTT against Araf1 ... active
GCUACUAUAUGCGUUUCUUTT against Fads2 ... inactive
CCUCUCCAACAACCAACUATT against 2900010D03Rik ... inactive
GGUCUAUGUACUCGCCAAATT against Ptpns1 ... inactive
